The reported measurements were obtained from PubChem BioAssay AID1926.

Target: VIM-2 metallo-beta-lactamase (Pseudomonas aeruginosa) (UniProt Q932Y6)
Assay: VIM-2 CCF2 hydrolysis inhibition, assay artifact filter – biochemical, FRET readout, CCF2 substrate, artefact control for selective VIM-2 inhibitor project, dose response (AID 1926)
Settings: purified VIM-2, CCF2 FRET substrate hydrolysis
The source made the active and inactive calls.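 Rule for the calls: active = IC50 half-maximal inhibitory concentration at or below 10 µM; inactive = IC50 above 10 µM.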
Log the outcome using a class from 1 = active, -1 = inactive

Lookup: // outcome(item) with item = `COc1ccc(-c2n[nH]c(=S)n2-c2ccc3c(c2)OCCO3)cc1OC`
Found: 1

Lookup: Name the outcome recorded for `CC(C)(C)CC(=O)Nc1nnc(SCC(=O)NCc2cccs2)s1` in the assay.
Found: 1

Lookup: Recorded call for `O=C1Nc2cc(C(=O)NCCCN3CCOCC3)ccc2S/C1=C/c1ccccc1F` ?
Found: -1

Lookup: Status in this test for `CC(C)(C)c1ccc(-c2n[nH]c(=S)n2CCCN2CCOCC2)cc1` ?
Found: 1

Lookup: I would be grateful if you could indicate the recorded call for `O=C(CSc1nnc(NC(=O)C2CCCCC2)s1)NCc1ccco1` .
Found: 1

Lookup: Per the assay record, what outcome was assigned to `Cc1ccc(-c2n[nH]c(=S)n2-c2ccccc2)cc1` ?
Found: -1

Lookup: Assay outcome for `NC(=O)SCC(=O)Nc1ccccc1C(=O)O` : what was it?
Found: 1

Lookup: # lookup: test call for `COc1ccc(-c2cc(C(F)(F)F)nc(N3CCN(C)CC3)n2)cc1`
Found: -1

Lookup: Status in this test for `COc1cccc(-n2c(CNC(=O)OC(C)(C)C)n[nH]c2=S)c1` ?
Found: 1

Lookup: Record lookup: outcome of this test for `COc1ccc2[nH]c(C(=O)O)c(CCN3C(=O)c4ccc(C(=O)O)cc4C3=O)c2c1` ?
Found: 1

Lookup: Hey, what did the test say about `Cc1cc(C(=O)OCC(=O)NC(=O)c2cccn2C)c2ccccc2n1` ?
Found: 1

###

Target: VIM-2 metallo-beta-lactamase (Pseudomonas aeruginosa) (UniProt Q932Y6)
Assay: VIM-2 CCF2 hydrolysis inhibition, assay artifact filter – biochemical, FRET readout, CCF2 substrate, artefact control for selective VIM-2 inhibitor project, dose response (AID 1926)
Conditions: purified VIM-2, CCF2 FRET substrate hydrolysis
The source made the active and inactive calls.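 The calls were made as follows: active = IC50 half-maximal inhibitory concentration at or below 10 µM; inactive = IC50 above 10 µM.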
Use one of these outcomes when replying: 1.0 = active, 0.0 = inactive

Lookup: Lab log entry: `O=C1Nc2cc(C(=O)N3CCC(N4CCCCC4)CC3)ccc2S/C1=C\c1ccccc1` — outcome as called in the assay?
Found: 1.0

Lookup: What is the recorded call for this compound in the test? `O=C(CSc1nnc(NC(=O)c2c(F)cccc2F)s1)NCc1ccccc1`
Found: 1.0

Lookup: Short answer needed: outcome of this test for `S=c1[nH]nc(-c2cccs2)n1C1CCCCC1` ?
Found: 1.0

Lookup: Outcome? `COc1ccccc1-n1c(-c2ccco2)n[nH]c1=S`
Found: 1.0

Lookup: // return assay outcome for `Cc1cccc(C(=O)Nc2nnc(SCC(=O)NCc3ccco3)s2)c1`
Found: 0.0

Lookup: # outcome recorded in this test, key = `COc1ccccc1C(=O)Nc1nnc(SCC(=O)NCc2ccco2)s1`
Found: 1.0

Lookup: Field: outcome | Entry: O=c1c2ccccc2cnn1Cc1n[nH]c(=S)n1C1CC2CCC1C2 (configuration not stated)
Found: 1.0

Lookup: Could you kindly confirm the outcome this assay logged for `COCC(=O)Nc1nnc(SCC(=O)NCc2cccs2)s1` ?
Found: 1.0

Lookup: What was the test verdict on `Cn1c(-c2sccc2OCc2ccccc2)n[nH]c1=S` ?
Found: 1.0

Lookup: For CCOC(=O)N=S(N)(=O)c1ccccc1 (configuration not stated) , which call appears in the assay record?
Found: 1.0

Lookup: Look up the recorded call for `O=C(CSc1nnc(NC(=O)C2CC2)s1)NCc1ccccc1Cl` in this test.
Found: 1.0

Lookup: What is the recorded call for this compound in the test? `CCn1c(-c2nn(-c3ccccc3)ccc2=O)n[nH]c1=S`
Found: 1.0

###

Task for the reader: assign each of the following compounds its reported IC50.
Molecular target: VIM-2 metallo-beta-lactamase (Pseudomonas aeruginosa) (UniProt Q932Y6)
Test: VIM-2 CCF2 hydrolysis inhibition, assay artifact filter – biochemical, FRET readout, CCF2 substrate, artefact control for selective VIM-2 inhibitor project, dose response (AID 1926)
Details: purified VIM-2, CCF2 FRET substrate hydrolysis

Measured IC50 of CC1=C(C(=O)O)N2C(=O)C(NC(=O)c3nn(C)cc3[N+](=O)[O-])C2SC1 (stereo not given) : 8.54 µM

Entry under test: `Cc1cc(C)n(-c2nc(SCC(=O)O)c3c4c(sc3n2)COC(C)(C)C4)n1` . Its IC50 was 9.07 µM

Measured IC50, `O=[N+]([O-])c1ccc(-c2ccccc2)c([As](=O)(O)O)c1` : 0.245 µM

// recorded IC50 for `Cc1cc(=O)oc2c3c(cc(OCC(=O)N[C@@H](Cc4ccccc4)C(=O)O)c12)OC(C)(C)CC3` : 7.51 µM

Item: `O=C(CSc1nnc(NC(=O)c2cccc(F)c2)s1)NCc1ccco1` | IC50: 4.55 µM

Measured IC50, `Cc1ccc(-n2c(-c3nn(C)c(C)c3Cl)n[nH]c2=S)cc1` : 3.72 µM

Query O=C(c1ccco1)N1N=C(c2ccc(Cl)cc2)CC1c1ccco1 (stereo not given) yields IC50 of 1.61 µM

Value of IC50 reported for the compound `Cc1cccc(-n2c(C)n[nH]c2=S)c1C` is 8.27 µM

The recorded IC50 for CC1CCCCC1n1c(-c2cccnc2)n[nH]c1=S (stereo not given) is 4.05 µM

Given item `CCCc1cc(=O)oc2c3c(cc(OCC(=O)N4CCC[C@H]4C(=O)O)c12)OC(C)(C)CC3` , the value recorded as its IC50 is 1.73 µM

###

Biological target: VIM-2 metallo-beta-lactamase (Pseudomonas aeruginosa)
Experiment: VIM-2 CCF2 hydrolysis inhibition, assay artifact filter – biochemical, FRET readout, CCF2 substrate, artefact control for selective VIM-2 inhibitor project, dose response (AID 1926)
Conditions: purified VIM-2, CCF2 FRET substrate hydrolysis
test-readout: IC50

The recorded IC50 for `Cc1c(Cl)c(-c2n[nH]c(=S)n2-c2ccc(F)cc2)nn1C` is 6.25 µM

The molecule listed as `S=c1[nH]nc(C2CC2)n1Cc1ccco1` shows IC50 equal to 3.76 µM

Form field IC50, entry `Cc1c(OCC(=O)N2CCC[C@@H]2C(=O)O)ccc2c3c(c(=O)oc12)CCC3` : 5.43 µM

Value of measured IC50 for the entry `O=C(CSc1nnc(NC(=O)c2ccccc2)s1)NCc1ccco1` : 4.63 µM

Recorded result, `O=P(O)(O)c1ccccc1OCc1ccccc1` , IC50: 0.689 µM

// IC50 lookup, molecule = `Cc1ccc(-c2c(C(=O)O)c(C(=O)O)c3n2CSC3)cc1` , result: 2.95 µM

IC50 reading for `Cc1c(C)c2ccc(OCC(=O)N3CCC[C@@H]3C(=O)O)c(C)c2oc1=O` : 2.09 µM

Sure, the documented IC50 for `O=C(CSc1nnc(NC(=O)c2ccccc2[N+](=O)[O-])s1)NCc1ccco1` is 2.62 µM

Entry under test: `Cc1cc(OCc2cc(C(=O)O)oc2C)c2c3c(c(=O)oc2c1)CCCC3` . Its IC50 was 0.582 µM

For `Cc1c(C)c2c(OCC(=O)N[C@@H](C)C(=O)O)cc3c(c2oc1=O)CCC(C)(C)O3` the molecule record lists IC50 as 1.54 µM

Per the record, `Cc1cc(=O)oc2c3c(cc(OCC(=O)N4CCC[C@H]4C(=O)O)c12)OC(C)(C)CC3` has IC50 of 4.93 µM

Looking up `S=c1[nH]nc(-c2ccco2)n1Cc1ccccc1` , I found its IC50 recorded as 3.51 µM

Measured IC50, `S=c1[nH]nc(Cn2c(-c3ccccn3)nc3ccccc32)n1-c1ccc2c(c1)OCCO2` : 4.03 µM

The recorded IC50 for `CC(C)Cn1c(-c2ccco2)n[nH]c1=S` is 4.37 µM

Reported IC50 of `Cc1cc(OCC(=O)N2CCC[C@@H]2C(=O)O)c2c(C)c(C)c(=O)oc2c1` : 5.31 µM

Measured IC50 of `CCOC(=O)c1[nH]c(C(=O)O)c(CCC(=O)OC)c1C` : 5 µM

// IC50 lookup, molecule = `O=C(CCN1C(=O)/C(=C/c2ccccc2F)SC1=S)NCCCn1ccnc1` , result: 4.49 µM

IC50 recorded for this molecule, `Cc1ccc(S(=O)(=O)n2[nH]c(=O)cc2NC(=O)c2cccs2)cc1` , is 0.12 µM

Query `O=C(O)c1[nH]c2ccc(Br)cc2c1CCN1C(=O)c2cccc([N+](=O)[O-])c2C1=O` yields IC50 of 0.716 µM

Measured IC50, `O=C(O)c1[nH]c2ccc(Cl)cc2c1CCN1C(=O)c2ccccc2C1=O` : 0.374 µM

So for `O=C(O)c1c(C(=O)O)c(-c2ccc(Br)cc2)n2c1CSC2` , the logged IC50 turned out to be 1.51 µM

Per the record, `CCCCc1cc(=O)oc2c3c(cc(OCC(=O)N4CCC[C@H]4C(=O)O)c12)OC(C)(C)CC3` has IC50 of 8.93 µM
